B1: Osa-1-4 twister ribozyme (parent)
chain: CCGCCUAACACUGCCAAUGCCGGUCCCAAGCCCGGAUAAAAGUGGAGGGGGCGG

- Variants of: B1
- assay.procedure: self-cleavage, relative activity (ratio to wild type); higher = more cleavage; co-transcriptional
// bucketize self-cleavage: bucket 1 (below 0.06), bucket 2 (0.06 to below 0.2), bucket 3 (0.2 or more)

{"sequence.chain": "CCGCCUAACACUGCCAAUGCCGGUCCCAAGCCCGGAUAGAAGUUGAGGGGGCGG [A39G G44U]", "label.class": "bucket 3"}
{"sequence.chain": "CCGCCUAACACUGCCAAUGCCGGUCCCAAGCCUGGAUAAAAGUGGAUGGGGCGG [C33U G47U]", "label.class": "bucket 2"}
{"sequence.chain": "CCGCCUAACACUGCCAAUGCCGGUCCCAAGCCCGGAUAAAAGUGCCGGGGGCGG [A46C G45C]", "label.class": "bucket 1"}
{"sequence.chain": "CCGCCUAACACUGCCAAUGCCGGUCCCAAGCCCAGAUAAAAGUGGAGGUGGCGG [G34A G49U]", "label.class": "bucket 2"}
{"sequence.chain": "CCGCCUAACACUGCCAAUGCCGGUCCCAAGCCCGGAUAAACGUGGAGGGGGCGG [A41C]", "label.class": "bucket 3"}
{"sequence.chain": "CCGCCUAACACUGCCAAUGCCAGUCCCAAGCCCGGAUAAAAGUGGAGAGGGCGG [G22A G48A]", "label.class": "bucket 2"}
{"sequence.chain": "CCGCCUAACACUGGCAAUGCCGGUCCCAAGCCCGGAGAAAAGUGGAGGGGGCGG [C14G U37G]", "label.class": "bucket 3"}
{"sequence.chain": "CCGCCUAACACUGCCAAUGCCGGCCCCAAGCCCGGAUAAAACUGGAGGGGGCGG [G42C U24C]", "label.class": "bucket 1"}
{"sequence.chain": "CCGCCUAACACUGCCAAUGCCGGUCCCAAGCCCUGAUAACAGUGGAGGGGGCGG [A40C G34U]", "label.class": "bucket 1"}
{"sequence.chain": "CCGCCUAACACUGCCAAUGCCGGUCCCAGGCCCGUAUAAAAGUGGAGGGGGCGG [A29G G35U]", "label.class": "bucket 2"}
{"sequence.chain": "CCGCCUAACACUGCCAAAGCCGGUCCCAUGCCCGGAUAAAAGUGGAGGGGGCGG [A29U U18A]", "label.class": "bucket 2"}
{"sequence.chain": "CCGCCUAUCACUACCAAUGCCGGUCCCAAGCCCGGAUAAAAGUGGAGGGGGCGG [A8U G13A]", "label.class": "bucket 1"}
{"sequence.chain": "CCGCCUAACACUGCCAAUGCCGGUCCCAAGCCCGGAUAAAAGUGGAGAGUGCGG [G48A G50U]", "label.class": "bucket 2"}
{"sequence.chain": "CCGCCUAACACUGCCUUUGCCGGUCCCAAGCCCGGAUAAAAGUGGAGGGGGCGG [A16U A17U]", "label.class": "bucket 3"}
{"sequence.chain": "CCGCCUAACACUACCAAUGCCGAUCCCAAGCCCGGAUAAAAGUGGAGGGGGCGG [G13A G23A]", "label.class": "bucket 1"}
{"sequence.chain": "CCGCCUAACACUGCCAAUGCCGGUCCCAAGCCCGGAUAAAAGUGACGGGGGCGG [A46C G45A]", "label.class": "bucket 1"}
{"sequence.chain": "CCGCCUAACACUGCCAAUGUCGGUCCCAAGCCCGGAUAAAUGUGGAGGGGGCGG [A41U C20U]", "label.class": "bucket 3"}
{"sequence.chain": "CCGCCUAACACUGCCAAUGCCGGUCCCAAGCCCUGAAAAAAGUGGAGGGGGCGG [G34U U37A]", "label.class": "bucket 3"}
{"sequence.chain": "CCGCCUAACACUGCCAAUGCCGGUCCUAAGCCCAGAUAAAAGUGGAGGGGGCGG [C27U G34A]", "label.class": "bucket 2"}
{"sequence.chain": "CCGCCUAACACUGCCAAUGCCGGUCCCAAGCCCGGAUAAAAGUGGAGGUGGUGG [C52U G49U]", "label.class": "bucket 2"}
